B1: Osa-1-4 twister ribozyme (parent)
chain: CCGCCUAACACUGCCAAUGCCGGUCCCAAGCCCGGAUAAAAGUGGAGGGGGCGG

variants of: B1; assay: self-cleavage, relative activity (ratio to wild type); higher = more cleavage; co-transcriptional
recorded.metric: self-cleavage
One number for each entry.

Example variants with recorded self-cleavage:
sequence_code=CCGCCUAACACUGCCAAUGCCGGUCCCAAGCCGGGAUAAAGGUGGAGGGGGCGG meas_value=0.1
sequence_code=CCGCCUAACACUGCCAAUGCCUGUCCCAAGCCCGGAUAAAAGUGGAAGGGGCGG meas_value=0.07
sequence_code=CCGCCUAACACUGCCAAUGCCGGUCCCAGGCCCGGAUAAAAGUGGAGGGGGCUG meas_value=0.07
sequence_code=CCGCCUAACACUGCCAAUGCCGGUCCCAAGCCCGGAUAAAAGUGGAGUGUGCGG meas_value=0.07
sequence_code=CCGCCUGACACUGCCAAUGCCGGUACCAAGCCCGGAUAAAAGUGGAGGGGGCGG meas_value=0.05

# batch size: 8; output self-cleavage per entry
1. CCGCCUAACACUGCCAAUUCCGGUCCCACGCCCGGAUAAAAGUGGAGGGGGCGG
2. CCGCCUAGCACUGCCAAUGCCGGUCCCAAGCCCGGAUAAACGUGGAGGGGGCGG
3. CCGCCUAACUCUGCCAAUGCCGGUCCCAAGGCCGGAUAAAAGUGGAGGGGGCGG
4. CCGCCUAACACUGCCAACGCCGCUCCCAAGCCCGGAUAAAAGUGGAGGGGGCGG
5. CCGCCUAACACUGCCAAUGCCGGUCCCAUGCCAGGAUAAAAGUGGAGGGGGCGG
6. CCGCCUAACACUGCCAAUGCCGGUCCCAAGCCAGGAUAAAAGCGGAGGGGGCGG
7. CCGCCUAACACUGCCAAUGCCGGUCCCAAGCCCGGAUAAAAUUGUAGGGGGCGG
8. CCGCCUAACACUGCCAAUGCUGGUCCGAAGCCCGGAUAAAAGUGGAGGGGGCGG

OUTPUT:
1: 0.03; 2: 0.24; 3: 0.03; 4: 0.14; 5: 0.04; 6: 0.06; 7: 0.04; 8: 0.09
